# System: XDR-E. coli
# PROTOCOL_NOTES: Drug sensitivity test of clinical strains (Table S2)
# Type: cell-based, Escherichia coli
# CONDITION_INFO: Escherichia coli, value in brackets
Listing: MIC of selected compounds

Check out these entries, answers already filled in.
[
  {
    "COMPOUND": "NC[C@H]1O[C@H](O[C@H]2[C@H](O)[C@@H](O[C@H]3O[C@H](CO)[C@@H](O)[C@H](N)[C@H]3O)[C@H](N)C[C@@H]2N)[C@H](N)C[C@@H]1O",
    "MIC": "≥ 16 µg/mL"
  },
  {
    "COMPOUND": "Cc1nnc(SCC2=C(C(=O)O)N3C(=O)[C@@H](NC(=O)Cn4cnnn4)[C@H]3SC2)s1",
    "MIC": "≥ 64 µg/mL"
  },
  {
    "COMPOUND": "NCC[C@H](O)C(=O)N[C@@H]1C[C@H](N)[C@@H](O[C@H]2O[C@H](CN)[C@@H](O)[C@H](O)[C@H]2O)[C@H](O)[C@H]1O[C@H]1O[C@H](CO)[C@@H](O)[C@H](N)[C@H]1O",
    "MIC": "≥ 64 µg/mL"
  },
  {
    "COMPOUND": "CC1(C)S[C@@H]2[C@H](NC(=O)[C@H](N)c3ccccc3)C(=O)N2[C@H]1C(=O)O",
    "MIC": "≥ 32 µg/mL"
  }
]

[in] I am curious: what MIC value has been reported for CC(C)(O/N=C(\C(=O)N[C@@H]1C(=O)N2C(C(=O)[O-])=C(C[n+]3ccccc3)CS[C@H]12)c1csc(N)n1)C(=O)O ?
[out] ≥ 64 µg/mL

[in] Now this one: CO/N=C(\C(=O)N[C@@H]1C(=O)N2C(C(=O)[O-])=C(C[N+]3(C)CCCC3)CS[C@H]12)c1csc(N)n1 [Cefepime]
[out] ≥ 64 µg/mL

[in] Now consider CO[C@@]1(NC(=O)C2SC(=C(C(N)=O)C(=O)O)S2)C(=O)N2C(C(=O)O)=C(CSc3nnnn3C)CS[C@@H]21 (stereo partly drawn) .
[out] ≥ 64 µg/mL

[in] # repeat for C[C@H]1COc2c(N3CCN(C)CC3)c(F)cc3c(=O)c(C(=O)O)cn1c23
[out] 11 µg/mL

[in] Entry to check: C[C@@H](O)[C@H]1C(=O)N2C(C(=O)O)=C(SCCN=CN)C[C@H]12
[out] ≥ 16 µg/mL
